- Tested on: rodent lifetime carcinogenesis bioassay, tumor incidence TD50
- assay-summary: carcinogenic potency in animals, long-term in vivo studies, CPDB compilation (AID 1745844)
- cond: rat; strain Fischer 344; females; in feed; site: liver + mammary gland; lesion: neoplastic nodule + adenocarcinoma, NOS; dosed 78 weeks; study length 106 weeks
observable: TD50

Field TD50 (entry c1ccc(NNc2ccccc2)cc1 ) reads 6.74 mg/kg/day

* * *

- System: rodent lifetime carcinogenesis bioassay, tumor incidence TD50
- assay-summary: carcinogenic potency in animals, long-term in vivo studies, CPDB compilation (AID 1745844)
- cond: rat; strain Cb/Sc; males; by gavage; site: liver; lesion: several types; types named in the paper; dosed 68 weeks; study length 94 weeks
observable: TD50

Recorded result, O=S(=O)(O)O , TD50: 39.4 mg/kg/day

* * *

- System: rodent lifetime carcinogenesis bioassay, tumor incidence TD50
- assay-summary: carcinogenic potency in animals, long-term in vivo studies, CPDB compilation (AID 1745844)
- cond: monkey; strain Rhesus [Macaca mulatta]; both sexes; several routes; site: cecum; lesion: adenocarcinoma; dosed 825 weeks; study length 1182 weeks
observable: TD50
Write your answer as a measured quantity: the number, then the unit.

Entry CNNCc1ccc(C(=O)NC(C)C)cc1 — recorded TD50 = 5.16 mg/kg/day

* * *

- Test system: rodent lifetime carcinogenesis bioassay, tumor incidence TD50
- assay-summary: carcinogenic potency in animals, long-term in vivo studies, CPDB compilation (AID 1745844)
- cond: mouse; strain Swiss CD-1; females; in drinking water; site: mammary gland; lesion: carcinoma; dosed 104 weeks; study length 104 weeks
observable: TD50

# compound CN(N=O)c1ncnc2nc[nH]c12 ; its TD50 = 28.7 mg/kg/day

* * *

- Tested on: rodent lifetime carcinogenesis bioassay, tumor incidence TD50
- assay-summary: carcinogenic potency in animals, long-term in vivo studies, CPDB compilation (AID 1745844)
- cond: rat; strain Fischer 344; females; in drinking water; site: esophagus; lesion: several types; types named in the paper; dosed 40 weeks; study length 110 weeks
observable: TD50

Kindly note the recorded TD50 for CN(CC(O)CO)N=O (stereo unspecified) , which is 1.48 mg/kg/day

* * *

So I've got a bunch of compounds here, and I need their TD50 values.
- Test system: rodent lifetime carcinogenesis bioassay, tumor incidence TD50
- assay-summary: carcinogenic potency in animals, long-term in vivo studies, CPDB compilation (AID 1745844)
- cond: rat; strain F344/DuCrj; males; in feed; site: stomach, glandular; lesion: adenoma; dosed 104 weeks; study length 104 weeks
Numbers only, in mg/kg/day.

>>> quantitative_result("COc1ccc(O)cc1")
16200

--- query ---
The compound listed as Oc1ccc2c(c1)OCO2 has a reported TD50 of 16200

* * *

- System: rodent lifetime carcinogenesis bioassay, tumor incidence TD50
- assay-summary: carcinogenic potency in animals, long-term in vivo studies, CPDB compilation (AID 1745844)
- cond: mouse; strain Swiss albino; females; in drinking water; site: blood vessels; lesion: several types; types named in the paper; dosed 92 weeks; study length 92 weeks
I'd appreciate it if you could supply TD50 values for the items below.

>>> result("CN(C)NC(=O)CCC(=O)O")
"1240 mg/kg/day"

// next entry
# TD50 (compound: CN(N)C=O ) is 12.2 mg/kg/day

* * *

- Test system: rodent lifetime carcinogenesis bioassay, tumor incidence TD50
- assay-summary: carcinogenic potency in animals, long-term in vivo studies, CPDB compilation (AID 1745844)
- cond: rat; strain Sprague-Dawley; males; by gavage; site: any site (literature study); lesion: malignant tumor; dosed 52 weeks; study length 156 weeks
observable: TD50

Summary: c1ccc(C2CO2)cc1 (stereo unspecified) , rodent lifetime carcinogenesis bioassay, tumor incidence TD50, TD50 = 189 mg/kg/day

* * *

- Tested on: rodent lifetime carcinogenesis bioassay, tumor incidence TD50
- assay-summary: carcinogenic potency in animals, long-term in vivo studies, CPDB compilation (AID 1745844)
- cond: mouse; strain B6C3F1; males; in feed; site: liver; lesion: hepatocellular adenoma + hepatocellular carcinoma + neoplastic nodule; dosed 80 weeks; study length 89 weeks
observable: TD50 (mg/kg/day)
Numbers only, in mg/kg/day.

Entry O=C1C2(Cl)C3(Cl)C4(Cl)C(Cl)(Cl)C5(Cl)C3(Cl)C1(Cl)C5(Cl)C24Cl (stereo unspecified) ; TD50 = 0.705

* * *

- Test system: rodent lifetime carcinogenesis bioassay, tumor incidence TD50
- assay-summary: carcinogenic potency in animals, long-term in vivo studies, CPDB compilation (AID 1745844)
- cond: rat; strain Wistar albino; males; i.p.; site: pancreas; lesion: several types; types named in the paper; dosed 26 weeks; study length 52 weeks
observable: TD50

Documented TD50 of CN(N=O)C(=O)NCCC[C@H](N)C(=O)O : 5.25 mg/kg/day

* * *

- System: rodent lifetime carcinogenesis bioassay, tumor incidence TD50
- assay-summary: carcinogenic potency in animals, long-term in vivo studies, CPDB compilation (AID 1745844)
- cond: mouse; strain Charles River CD1; males; by gavage; site: liver; lesion: hepatocellular adenoma; dosed 80 weeks; study length 80 weeks
Activity calls are given as the source filed them. The rule behind the calls is not given here.
observable: TD50

compound Cn1cc(OCC(O)CNC(C)(C)C)c2ccccc2c1=O (stereo unspecified) , TD50 observed: 131 mg/kg/day (inactive)

* * *

- Test system: rodent lifetime carcinogenesis bioassay, tumor incidence TD50
- assay-summary: carcinogenic potency in animals, long-term in vivo studies, CPDB compilation (AID 1745844)
- cond: rat; strain Fischer 344; males; in feed; site: all sites; lesion: leukemia; dosed 105 weeks; study length 105 weeks
observable: TD50
Form entry: enter the amount, then its unit.

Record summary for Clc1cccc(-c2ccc(Cl)c(Cl)c2Cl)c1Cl : reported TD50 = 6.75 mg/kg/day

* * *

- System: rodent lifetime carcinogenesis bioassay, tumor incidence TD50
- assay-summary: carcinogenic potency in animals, long-term in vivo studies, CPDB compilation (AID 1745844)
- cond: mouse; strain B6C3F1; females; by gavage; site: lung; lesion: alveolar/bronchiolar adenoma + alveolar/bronchiolar carcinoma; dosed 70 weeks; study length 83 weeks
observable: TD50 (mg/kg/day)
Answers are plain numbers, in mg/kg/day.

Entry CC(C)CCC[C@@H](C)[C@H]1CC[C@H]2[C@@H]3CC=C4C[C@@H](OC(=O)Cc5ccc(N(CCCl)CCCl)cc5)CC[C@]4(C)[C@H]3CC[C@]12C , rodent lifetime carcinogenesis bioassay, tumor incidence TD50 data, TD50 value: 0.416

* * *

- Tested on: rodent lifetime carcinogenesis bioassay, tumor incidence TD50
- assay-summary: carcinogenic potency in animals, long-term in vivo studies, CPDB compilation (AID 1745844)
- cond: mouse; strain Ha/ICR; females; i.p.; site: abdomen; lesion: sarcoma; dosed 64 weeks; study length 64 weeks
observable: TD50

Bench note, rodent lifetime carcinogenesis bioassay, tumor incidence TD50: entry CN(C)C(=O)Cl , its TD50 = 5.37 mg/kg/day

* * *

Provide the reported TD50 of each item.
- Test system: rodent lifetime carcinogenesis bioassay, tumor incidence TD50
- assay-summary: carcinogenic potency in animals, long-term in vivo studies, CPDB compilation (AID 1745844)
- cond: mouse; strain B6C3F1; females; in feed; site: liver; lesion: hemangiosarcoma; dosed 96 weeks; study length 104 weeks
Active and inactive are the calls of the source. How the calls were made is not given here.

Provide TD50 for all items below, preserving their order.
1. O
2. COc1ccc([C@@H]2CC(=O)c3c(O)cc(O[C@@H]4O[C@H](CO[C@@H]5O[C@@H](C)[C@H](O)[C@@H](O)[C@H]5O)[C@@H](O)[C@H](O)[C@H]4O)cc3O2)cc1OC

Return:
57500 mg/kg/day (inactive)
887000 mg/kg/day (inactive)

* * *

- Test system: rodent lifetime carcinogenesis bioassay, tumor incidence TD50
- assay-summary: carcinogenic potency in animals, long-term in vivo studies, CPDB compilation (AID 1745844)
- cond: rat; strain OFA (Sprague-Dawley derived); females; in feed; site: uterus; lesion: several types; types named in the paper; dosed 100 weeks; study length 100 weeks
observable: TD50

Lab note: measured TD50 of CC(C)C[C@H]1C(=O)N2CCC[C@H]2[C@]2(O)O[C@](NC(=O)[C@@H]3C=C4c5cccc6[nH]c(Br)c(c56)C[C@H]4N(C)C3)(C(C)C)C(=O)N12 was 33.7 mg/kg/day

* * *

- Test system: rodent lifetime carcinogenesis bioassay, tumor incidence TD50
- assay-summary: carcinogenic potency in animals, long-term in vivo studies, CPDB compilation (AID 1745844)
- cond: rat; strain Sprague-Dawley; females; in feed; site: any site (literature study); lesion: malignant tumor; dosed 75 weeks; study length 75 weeks
observable: TD50 (mg/kg/day)
Answers are plain numbers, in mg/kg/day.

Field TD50 (rodent lifetime carcinogenesis bioassay, tumor incidence TD50), entry COc1cc2c(cc1N)oc1ccccc12 : 25.7

* * *

- Tested on: rodent lifetime carcinogenesis bioassay, tumor incidence TD50
- assay-summary: carcinogenic potency in animals, long-term in vivo studies, CPDB compilation (AID 1745844)
- cond: rat; strain Charles River CD (Sprague-Dawley); females; inhaled; site: nasal cavity, respiratory epithelium; lesion: adenoma; dosed 52 weeks; study length 52 weeks
observable: TD50 (mg/kg/day)
Numbers only, in mg/kg/day.

Entry under test: C=CN1CCCC1=O . Its TD50 was 19.8
